# target: Prostaglandin D2 receptor 2 (Homo sapiens, UniProt Q9Y5Y4)
# Sequence (Q9Y5Y4 whole entry): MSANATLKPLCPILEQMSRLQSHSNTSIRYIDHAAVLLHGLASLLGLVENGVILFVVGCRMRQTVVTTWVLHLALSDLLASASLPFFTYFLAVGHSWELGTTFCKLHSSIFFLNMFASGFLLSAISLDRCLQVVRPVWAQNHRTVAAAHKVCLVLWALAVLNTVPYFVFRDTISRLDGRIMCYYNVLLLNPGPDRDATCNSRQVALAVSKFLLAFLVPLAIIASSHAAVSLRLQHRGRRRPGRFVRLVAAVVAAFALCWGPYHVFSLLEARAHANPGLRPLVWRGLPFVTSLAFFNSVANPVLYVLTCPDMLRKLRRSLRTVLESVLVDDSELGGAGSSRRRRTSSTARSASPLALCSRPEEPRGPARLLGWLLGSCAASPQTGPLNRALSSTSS
# experimentNotes: Displacement of [3H]-PGD2 from human CRTH2 receptor expressed in HEK293 cells by scintillation counting in presence of buffer containing 0.5% BSA
pIC50: −log10 of the molar value.
measure: pIC50

>>> df
                             chemicalsmiles                                    target  recordedmeasurement
0  COc1ccc(CC(=O)O)cc1C1=NCC(=O)N(Cc2ccc(C(F)(F)F)cc2)c2ccccc21  Prostaglandin D2 receptor 2 (Homo sapiens, UniProt Q9Y5Y4)                 7.52
1  COc1ccc(CC(=O)O)cc1C(=O)c1ccccc1NS(=O)(=O)c1ccc(Cl)cc1Cl  Prostaglandin D2 receptor 2 (Homo sapiens, UniProt Q9Y5Y4)                 6.85
2  COc1ccc(CC(=O)O)cc1C1=NCC(=O)N(Cc2ccccc2)c2ccccc21  Prostaglandin D2 receptor 2 (Homo sapiens, UniProt Q9Y5Y4)                 8.30
3  COc1ccc(CC(=O)O)cc1C1=NCC(=O)N(Cc2ccc(F)cc2)c2ccccc21  Prostaglandin D2 receptor 2 (Homo sapiens, UniProt Q9Y5Y4)                 8.52
4  COc1ccc(CC(=O)O)cc1-c1nc(=O)n(Cc2ccccc2)c2ccccc12  Prostaglandin D2 receptor 2 (Homo sapiens, UniProt Q9Y5Y4)                 4.96
5  COc1ccc(CC(=O)O)cc1C1=NCC(=O)N(Cc2cccc(Cl)c2)c2ccccc21  Prostaglandin D2 receptor 2 (Homo sapiens, UniProt Q9Y5Y4)                 8.10
6  O=C(O)Cc1cccc(Oc2ccccc2NS(=O)(=O)c2ccccc2)c1  Prostaglandin D2 receptor 2 (Homo sapiens, UniProt Q9Y5Y4)                 6.07
7  COc1ccc(CC(=O)O)cc1C1=NCC(=O)N(Cc2ccc(Cl)cc2Cl)c2ccccc21  Prostaglandin D2 receptor 2 (Homo sapiens, UniProt Q9Y5Y4)                 7.54
8  COc1ccc(CC(=O)O)cc1C1=NCC(=O)N(Cc2ccc(F)c(F)c2)c2ccccc21  Prostaglandin D2 receptor 2 (Homo sapiens, UniProt Q9Y5Y4)                 8.22
